molecular target: Cytochrome P450 2C9 (Homo sapiens) (UniProt P11712); assay: blockers of cytochrome P450 2C9 activity – biochemical, luminescence, ADME assay, primary screen (AID 777); details: CYP2C9 Supersomes, luciferin-H conversion, at 5 µM, hits give high values
Sequence (P11712 whole entry, looked up): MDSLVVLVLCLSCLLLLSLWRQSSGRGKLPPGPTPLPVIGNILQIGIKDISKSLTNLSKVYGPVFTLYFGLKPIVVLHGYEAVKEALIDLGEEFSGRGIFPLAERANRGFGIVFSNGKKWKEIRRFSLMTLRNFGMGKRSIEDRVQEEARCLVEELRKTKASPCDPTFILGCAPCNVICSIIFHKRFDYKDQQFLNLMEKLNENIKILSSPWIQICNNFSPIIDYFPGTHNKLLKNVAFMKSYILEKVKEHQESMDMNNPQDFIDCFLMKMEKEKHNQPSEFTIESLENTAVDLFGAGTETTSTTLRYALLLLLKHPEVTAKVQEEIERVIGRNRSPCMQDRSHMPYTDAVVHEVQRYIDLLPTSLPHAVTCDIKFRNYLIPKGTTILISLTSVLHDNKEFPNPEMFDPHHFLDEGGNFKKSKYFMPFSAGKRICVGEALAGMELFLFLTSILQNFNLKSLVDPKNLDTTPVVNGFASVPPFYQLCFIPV
In all, about 96,000 compounds went through this assay and about 19,000 (20%) were called active. Only a sample is shown.
observed property: inhibition (%)

Cc1noc(C)c1CSCC(=O)Nc1nc2ccc(Oc3ccccc3)cc2s1	44.1
CC(C)C(=O)N1CCN(CCN=CC2=C(O)CC(c3ccco3)CC2=O)CC1 (configuration not stated)	-7.6
Cc1nn(C(=O)c2ccoc2C)c(N)c1-c1ccccc1	26.4
CC(C(=O)O)N1C(=O)c2cccc3cccc1c23 (configuration not stated)	-6.4
CN=C1SC(CC(=O)Nc2ccc(C(=O)O)cc2)C(=O)N1C (configuration not stated)	8.3
Cc1ccc(C(=O)CS(C)(=O)=O)cc1	-4.7
CC(=O)c1cc2c(cc1N)OCO2	3.4
CCOC(=O)c1c(C2CC2)csc1NC(=O)CSCc1c(C)noc1C	65
Cc1nc(SC(C)C)[nH]c(=O)c1Cc1ccccc1	26
CC(C)(CNCC(O)c1ccccc1)N1CCOCC1 (configuration not stated)	-3.5
Cc1nn2c(c1-c1ccccc1)N=C(c1ccco1)CC2c1ccccc1 (configuration not stated)	63.5
O=C(c1ccc(O)cc1)c1ccc(C(=O)O)c(C(=O)O)c1	-15.8
